The following compounds are listed with their measured pIC50 values.
- Tested on: SK-MEL
- EXPERIMENTAL PROTOCOL: Cytotoxicity against human malignant melanoma cell line SK-MEL
- Type: functional, cell-based
# pIC50 = -log10(concentration in molar units)

> print(dat)
                                   compound  endpoint.result
1  CC1(C)C2CC[C@@H](Cc3ccccc3C(=O)O)C[C@@]2(C)CC[C@@H]1O (stereo partly specified)             3.32
2  CC1(C)C2CCC[C@H](/C=C/c3cccc(C(=O)O)c3)[C@@]2(C)CC[C@@H]1O (stereo partly specified)             3.57
3  CC1(C)C2CCC(Cc3ccc(C(=O)O)cc3)C[C@@]2(C)CC[C@@H]1O (single isomer, unassigned)             3.42

Short answer for CC1(C)C2CCC(Cc3cccc(C(=O)O)c3)C[C@@]2(C)CC[C@@H]1O (single isomer, unassigned) : pIC50 was 3.48

// pIC50 lookup, compound = CC1(C)C2CCC[C@H](/C=C/c3ccccc3C#N)[C@@]2(C)CC[C@@H]1O (stereo partly specified) , result: 3.81

According to the records, this compound COc1ccc(CO[C@H]2CC[C@]3(C)CC(Cc4ccc(C(=O)O)cc4)CCC3C2(C)C)cc1 (single isomer, unassigned) displays pIC50 of 3.70
